Assay: Measurement of Log P values by HPLC on reversed phase columns (EEC directive 79/831 Annex V.A8)
Type: physicochemical
Conditions: reversed phase HPLC column, method [a]: LC-UV, acidic range, 0.1% formic acid in water and acetonitrile as eluent
The following compounds are shown together with reported chromatographic logP values.

Solved entries:
Cc1ccc(C(F)(F)CNC(=O)c2c(Oc3cccc(C(F)(F)F)c3)nnc3c2CCOCC3)c(C)c1 : 3.58
CCOC(=O)c1c(Oc2cccc(Cl)c2)nnc2c1CCCC2 : 3.72
Cc1ccc(C(F)(F)CNC(=O)c2c(Oc3cccc(C(F)(F)F)c3)nnc3cc(F)ccc23)cc1C : 4.62
Cc1ccc(C(F)(F)CNC(=O)c2c(Oc3cccc(C(F)(F)F)c3)nnc3c2CCC3)c(C)c1 : 4

Could you tell me which chromatographic logP is on file for Cc1ccc(C(F)(F)CNC(=O)c2c(Oc3cccc(C(F)(F)F)c3)nnc3c2OCCO3)c(C)c1 ?
3.37

Quick one: chromatographic logP of O=C(NCC(F)(F)c1ccc(Cl)cc1Cl)c1c(Oc2cccc(C(F)F)c2)nnc2c1CCCC2 ?
3.73

Quick one: chromatographic logP for CC(C)CON(Cc1ccccc1)C(=O)c1c(Oc2cccc(C(F)(F)F)c2)nnc2ccccc12 ?
4.86

May I ask what chromatographic logP has been recorded for Cc1ccc(C(F)(F)CNC(=O)c2c(Oc3cccc(C(F)F)c3)nnc3ccccc23)c(C)c1 ?
3.92

// lookup chromatographic logP for O=C(N[C@H]1CCCc2cc(Br)ccc21)c1c(Oc2cccc(C(F)(F)F)c2)nnc2ccccc12 (racemic)
4.66

// returns reported chromatographic logP for input CC1(C)COc2nnc(Oc3cccc(C(F)(F)F)c3)c(C(=O)O)c2OC1
2.02

###

Test: Measurement of Log P values by HPLC on reversed phase columns (EEC directive 79/831 Annex V.A8)
Format: physicochemical
Settings: reversed phase HPLC column, method [a]: LC-UV, acidic range, 0.1% formic acid in water and acetonitrile as eluent
One threshold, 4, splits the recorded chromatographic logP values: lower ones are met, equal or higher ones are not met.

Reference set, count: 5
CCOC(=O)c1c(Oc2cccc(Cl)c2F)nnc2c1CCC2 [1-40] : met
O=C(O)c1c(Oc2cccc(C(F)(F)F)c2)nnc2cc(C3CC3)ccc12 [1-34] : met
CC1(C)Cc2cc(Cl)c(F)cc2[C@@H](NC(=O)c2c(Oc3cccc(C(F)(F)F)c3)nnc3ccccc23)C1 (racemic) [I-197] : not met
CCOC(=O)c1c(Oc2cccc(C(F)(F)F)c2)nnc2cc(C)ccc12 [1-52] : not met
Cc1ccc(C(F)(F)CNC(=O)c2c(Oc3cccc(C(F)(F)F)c3)nnc3cc(F)ccc23)c(C)c1 [I-166] : not met

hey, is chromatographic logP for C=C(OCC)c1ccc(C(F)(F)CNC(=O)c2c(Oc3cccc(C(F)(F)F)c3)nnc3ccccc23)c(Cl)c1 [I-169] lower than 4 or not?
not met

chromatographic logP under 4? Item: N#Cc1cccc(Oc2nnc3ccccc3c2C(=O)NC[C@H](F)c2ccc(Br)cc2Cl)c1 (racemic) [I-031]
met

Consider the molecule Cc1ccc2c(C(=O)N[C@H]3CCCc4cc(Br)ccc43)c(Oc3cccc(C(F)(F)F)c3)nnc2c1 (racemic) [I-181] . Is its chromatographic logP strictly less than 4?
not met

Hello, I'm reviewing records and need to know if chromatographic logP of Cc1ccc(CCNC(=O)c2c(Oc3cccc(C(F)(F)F)c3)nnc3c(C)cccc23)c(C)c1 [I-005] is below 4. Could you check?
not met

# credit: patent US20230192617A1
